Where these numbers come from: paper PMC12118597

- Target Of Assay: SARS-CoV-2 NSP3 macrodomain (Mac1) (Severe acute respiratory syndrome coronavirus 2, UniProt P0DTD1)
- Format: binding
- Stated Conditions: PanDDA background density correction, 1-BDC
Decision: 1-BDC >= 0.1 yields label 1, all other cases yield label 0.

Completed entries (count: 6):
molecule=CC(C)(CO)Nc1ncnc2[nH]ccc12 discrete_label="label 1"
molecule=Cc1c[nH]c2ncnc(NCC3(O)CCOCC3)c12 discrete_label="label 0"
molecule="CC(C)C1CCCN1c1ncnc2[nH]ccc12 (centres unmarked)" discrete_label="label 1"
molecule=CN(CC1(O)CCOCC1)c1ncnc2[nH]ccc12 discrete_label="label 1"
molecule="OC1CCC(O)(CNc2ncnc3[nH]ccc23)CC1 (centres unmarked)" discrete_label="label 0"
molecule="CC1CCC(O)(CNc2ncnc3[nH]ccc23)CC1 (centres unmarked)" discrete_label="label 1"

Data request: Does the reported 1-BDC for CC(O)C(C)Nc1ncnc2[nH]ccc12 (centres unmarked) fall at or above the 0.1 mark?
Data returned: label 1

Data request: # check: 1-BDC of O=C(O)C(F)(F)F.OC[C@H](Cc1ccc(O)cc1)Nc1ncnc2[nH]ccc12 is greater than or equal to 0.1
Data returned: label 1

Data request: Dear colleague, could you confirm whether CC1(C)CCN(c2ncnc3[nH]ccc23)C(CO)C1 (centres unmarked) has 1-BDC at or above 0.1?
Data returned: label 1

Data request: Item OC1(CNc2ncnc3[nH]ccc23)CCCC(C(F)(F)F)C1 (centres unmarked) with 1-BDC of 0.1 or above?
Data returned: label 1

Data request: Item Cc1c[nH]c2ncnc(NCC3(O)CCC(C)CC3)c12 (centres unmarked) with 1-BDC of 0.1 or above?
Data returned: label 1
